# credit: PubChem BioAssay

Assay: basal S. cerevisiae growth modulation, no modifier, primary screen, OD600, strain BY4716, 24 h, basal condition (AID 1173)
Conditions: OD600, 24 h, higher = more signal, called active from +8 up or from −8 down
quantity.name: z-score

compound | quantity.name | recorded.result
CC(C)C(=C=CC[C@@H](O)c1ccc(OCCO)cc1)CCO | z-score | -3.28
CC1CC/C=C\[C@H]2OC34C=CCN(CCN5CCOCC5)C(=O)[C@H]3N(CCCCCCO)C(=O)[C@@H]4C2C(=O)O1 (some centres not stated) | z-score | -0.195
COCCOC(=O)N1C(=O)[C@@]2(c3ccccc31)[C@H](C(=O)N1CCCCCCC1)[C@H]1C(=O)O[C@H](c3ccccc3)[C@H](c3ccccc3)N1[C@@H]2c1ccc(O)cc1 | z-score | -0.975
CC(C)(C)N1CC=CC23O[C@@H]4/C=C\CCCOC(=O)C4[C@H]2C(=O)N(CCCCCCO)[C@@H]3C1=O (some centres not stated) | z-score | -0.584
CN(C)CCCCNC(=O)[C@H]1C[C@H]2C(=O)NCC(=O)N2[C@H]1c1cccc(OCCO)c1 | z-score | 0.425
COCCOC(=O)N1C(=O)[C@@]2(c3cc(C#CC4(O)CCCCCC4)ccc31)[C@H](c1ccccc1OCCO)N1[C@H](c3ccccc3)[C@H](c3ccccc3)OC(=O)[C@H]1[C@@H]2C(=O)N1CCCCCCC1 | z-score | 2.15
C[N+](C)(C)CCCCCCNC(=O)[C@H]1C[C@H]2C(=O)NCC(=O)N2[C@H]1c1cccc(OCCO)c1 | z-score | -0.316
